Molecular target: ErbB2 WT (Homo sapiens (Human), UniProt P04626)
Sequence (P04626 23-1255): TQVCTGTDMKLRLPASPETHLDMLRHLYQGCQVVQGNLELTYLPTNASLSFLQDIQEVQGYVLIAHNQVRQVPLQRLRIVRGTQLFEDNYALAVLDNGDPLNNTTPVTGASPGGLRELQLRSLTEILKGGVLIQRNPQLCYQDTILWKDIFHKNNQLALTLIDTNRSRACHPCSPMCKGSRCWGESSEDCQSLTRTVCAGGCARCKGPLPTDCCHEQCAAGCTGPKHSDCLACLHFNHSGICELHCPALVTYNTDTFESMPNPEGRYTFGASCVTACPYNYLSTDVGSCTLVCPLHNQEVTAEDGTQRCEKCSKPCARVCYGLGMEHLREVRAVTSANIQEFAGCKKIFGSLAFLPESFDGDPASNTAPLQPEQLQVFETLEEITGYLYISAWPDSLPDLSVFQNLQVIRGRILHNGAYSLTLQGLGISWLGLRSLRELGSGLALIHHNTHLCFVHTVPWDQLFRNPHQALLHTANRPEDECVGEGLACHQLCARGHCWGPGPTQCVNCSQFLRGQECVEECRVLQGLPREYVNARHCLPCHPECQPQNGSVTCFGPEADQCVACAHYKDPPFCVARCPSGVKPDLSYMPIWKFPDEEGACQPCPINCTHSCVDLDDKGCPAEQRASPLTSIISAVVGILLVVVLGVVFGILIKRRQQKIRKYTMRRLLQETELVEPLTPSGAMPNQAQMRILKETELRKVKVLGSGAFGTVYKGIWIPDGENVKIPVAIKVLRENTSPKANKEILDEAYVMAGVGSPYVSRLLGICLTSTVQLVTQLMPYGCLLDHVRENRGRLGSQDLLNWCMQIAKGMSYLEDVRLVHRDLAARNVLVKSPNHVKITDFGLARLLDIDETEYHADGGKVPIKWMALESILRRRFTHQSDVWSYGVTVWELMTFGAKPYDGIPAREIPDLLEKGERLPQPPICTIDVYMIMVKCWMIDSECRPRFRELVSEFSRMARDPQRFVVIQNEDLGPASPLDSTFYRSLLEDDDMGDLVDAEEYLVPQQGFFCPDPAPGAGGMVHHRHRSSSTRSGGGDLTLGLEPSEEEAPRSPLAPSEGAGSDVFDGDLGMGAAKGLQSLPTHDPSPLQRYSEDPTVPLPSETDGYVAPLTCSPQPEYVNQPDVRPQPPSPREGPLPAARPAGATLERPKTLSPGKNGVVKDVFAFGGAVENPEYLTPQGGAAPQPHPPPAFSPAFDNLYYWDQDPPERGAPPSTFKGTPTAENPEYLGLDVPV
Assay: ErbB Enzyme Assay (HTRF KinEASE-TK), Assay 2
Assay type: biochemical
Conditions: ErbB2 WT enzyme assay
I'd be grateful if you could share measured pIC50 for these entries.
Numbers only, as −log10 of the molar value.

Worked set:
molecule	target-desc	pIC50
C=CC(=O)N1CCN(c2ccc3ncnc(Nc4ccc(Oc5cc(F)c6c(c5)ncn6C)c(C)c4)c3n2)CC1(C)C	ErbB2 WT (Homo sapiens (Human), UniProt P04626)	7.63
C=CC(=O)N1CCN(c2ccc3ncnc(Nc4cc(C)c(Oc5ccn6ncnc6c5)cc4F)c3n2)C[C@@H]1CC	ErbB2 WT (Homo sapiens (Human), UniProt P04626)	7.27
C=CC(=O)N1CC[C@H]2C[C@H](c3ccc4ncnc(Nc5ccc(Oc6ccn7ncnc7c6)c(C)c5)c4n3)C[C@H]21	ErbB2 WT (Homo sapiens (Human), UniProt P04626)	7.90

Below are some compounds; for each one, tell me its pIC50.
1. C=CC(=O)N1C[C@H]2CC[C@@H]1[C@@H](c1ccc3ncnc(Nc4ccc(Oc5cnc6c(c5)ncn6C)c(C)c4F)c3n1)C2
2. C=CC(=O)N1C[C@H]2CC[C@H](c3ccc4ncnc(Nc5cc(C)c(Oc6ccn7ncnc7c6)cc5F)c4n3)[C@H]2C1
3. C=CC(=O)N1CCN(c2ccc3ncnc(Nc4cnc(Oc5ccn6ncnc6c5)c(C)c4)c3n2)CC1(C)C

Outgoing:
[6.98, 6.92, 7.04]
